Biological target: Angiotensin-converting enzyme (Oryctolagus cuniculus, UniProt P12822)
Sequence (P12822 whole entry): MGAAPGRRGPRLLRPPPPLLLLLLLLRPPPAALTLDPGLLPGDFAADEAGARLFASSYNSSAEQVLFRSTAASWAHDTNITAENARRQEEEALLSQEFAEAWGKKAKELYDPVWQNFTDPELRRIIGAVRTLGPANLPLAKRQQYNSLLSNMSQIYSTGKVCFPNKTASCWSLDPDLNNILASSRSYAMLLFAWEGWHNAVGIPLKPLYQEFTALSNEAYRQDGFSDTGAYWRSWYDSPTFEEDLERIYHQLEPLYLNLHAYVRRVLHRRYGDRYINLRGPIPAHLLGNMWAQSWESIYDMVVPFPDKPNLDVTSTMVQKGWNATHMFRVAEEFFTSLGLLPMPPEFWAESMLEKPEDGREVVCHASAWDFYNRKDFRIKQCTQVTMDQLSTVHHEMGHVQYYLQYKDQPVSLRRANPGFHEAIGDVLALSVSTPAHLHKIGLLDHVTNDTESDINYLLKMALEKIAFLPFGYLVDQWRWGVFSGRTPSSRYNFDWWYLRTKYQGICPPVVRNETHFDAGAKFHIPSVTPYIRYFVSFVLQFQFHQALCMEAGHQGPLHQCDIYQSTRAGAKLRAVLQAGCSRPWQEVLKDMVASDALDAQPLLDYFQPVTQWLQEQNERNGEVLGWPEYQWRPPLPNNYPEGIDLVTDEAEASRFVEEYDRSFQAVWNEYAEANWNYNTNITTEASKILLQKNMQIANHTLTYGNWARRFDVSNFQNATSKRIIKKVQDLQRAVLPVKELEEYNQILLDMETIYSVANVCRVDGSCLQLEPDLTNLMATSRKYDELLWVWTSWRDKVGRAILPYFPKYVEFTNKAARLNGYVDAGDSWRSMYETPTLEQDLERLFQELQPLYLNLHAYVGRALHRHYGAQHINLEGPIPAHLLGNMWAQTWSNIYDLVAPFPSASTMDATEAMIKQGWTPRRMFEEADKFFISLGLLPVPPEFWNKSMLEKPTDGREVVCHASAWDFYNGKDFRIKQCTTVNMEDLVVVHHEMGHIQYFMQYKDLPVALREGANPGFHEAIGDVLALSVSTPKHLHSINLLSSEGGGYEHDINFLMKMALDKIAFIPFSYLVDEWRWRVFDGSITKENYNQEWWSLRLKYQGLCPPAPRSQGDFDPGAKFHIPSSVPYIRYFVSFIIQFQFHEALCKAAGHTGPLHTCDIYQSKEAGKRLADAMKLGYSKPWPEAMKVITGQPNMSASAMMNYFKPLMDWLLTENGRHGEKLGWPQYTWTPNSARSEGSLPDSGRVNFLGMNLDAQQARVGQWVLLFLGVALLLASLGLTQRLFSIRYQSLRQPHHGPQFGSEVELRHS
pKi: −log10 of the molar value.
Here, each record is paired with measured pKi data.

- Molecule: "O=C(O)CC1(C(=O)NCc2cc3ccccc3s2)Cc2ccccc2C1"
  Target Under Test: "Angiotensin-converting enzyme (Oryctolagus cuniculus, UniProt P12822)"
  pKi: "< 4.24"
- Molecule: "O=C(O)CC1(C(=O)NCc2ccccc2)Cc2ccccc2C1"
  Target Under Test: "Angiotensin-converting enzyme (Oryctolagus cuniculus, UniProt P12822)"
  pKi: "< 4.24"
- Molecule: "O=C(O)CC1(C(=O)NCc2coc3ccccc23)Cc2ccccc2C1"
  Target Under Test: "Angiotensin-converting enzyme (Oryctolagus cuniculus, UniProt P12822)"
  pKi: 4.50
- Molecule: "O=C(O)CC1(C(=O)NCc2nc3ccccc3s2)Cc2ccccc2C1"
  Target Under Test: "Angiotensin-converting enzyme (Oryctolagus cuniculus, UniProt P12822)"
  pKi: "< 4.24"

Turning to the following molecule.
# get_value(readout='pKi', item= CC(NC(=O)CC1(C(=O)O)Cc2ccccc2C1)c1cc2ccccc2o1 (racemic) ) < 4.24
